Tested on: BT-20 (Breast Carcinoma);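 further: after 72 h of two-drug dosing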
Measurement description: Bliss excess, mean over the matrix (fraction); higher = more synergy
Response key: Fulfilled means Bliss excess >= 0.02; Not fulfilled means Bliss excess < 0.02.

Q) For this compound, is measured Bliss excess 0.02 or higher? COc1cc2c(cc1OCCCCCOc1cc3c(cc1OC)C(=O)N1C=C(C)C[C@H]1C=N3)N=C[C@@H]1CC(C)=CN1C2=O [SG3199] + O=C(c1cc(Cc2n[nH]c(=O)c3ccccc23)ccc1F)N1CCN(C(=O)C2CC2)CC1 [Olaparib] (first compound max 0.001 µM, 7x7, partner max 10 µM)
A) Not fulfilled

Q) Evaluate COc1cc2ncnc(Nc3ccc(F)c(Cl)c3)c2cc1OCCCN1CCOCC1 [Gefitinib] + CC(C)n1c(=O)n(C)c2cnc3cc(F)c(-c4ccc(OCCCN5CCCCC5)nc4)cc3c21 [AZD1390] (first compound max 10 µM, 7x7, partner max 0.3 µM) : Bliss excess at minimum 0.02?
A) Not fulfilled

Q) Item CN(CCO)CC[C@H](CSc1ccccc1)Nc1ccc(S(=O)(=O)NC(=O)c2ccc(N3CCC([C@@H](O)c4ccccc4-c4ccc(Cl)cc4)CC3)cc2)cc1S(=O)(=O)C(F)(F)F [AZD4320] + CCN(CCO)CCCOc1ccc2c(Nc3cc(CC(=O)Nc4cccc(F)c4)[nH]n3)ncnc2c1 [AZD2811] (first compound max 1 µM, 7x7, partner max 1 µM) with Bliss excess of 0.02 or above?
A) Fulfilled

Q) Quick check, Bliss excess >= 0.02? COc1cccc(OCCCN)c1-c1cc(Nc2cnc(C#N)cn2)n[nH]1 [Prexasertib] + C=CCn1c(=O)c2cnc(Nc3ccc(N4CCN(C)CC4)cc3)nc2n1-c1cccc(C(C)(C)O)n1 [AZD1775] (first compound max 1 µM, partner max 1 µM)
A) Fulfilled

Q) Identify whether the reported Bliss excess of the following compound is 0.02 or greater: C[C@@H](c1ccc2nccn2c1)n1nnc2ncc(-c3cnn(C)c3)nc21 [Savolitinib] + CC1(C)CCC(CN2CCN(c3ccc(C(=O)NS(=O)(=O)c4ccc(NCC5CCOCC5)c([N+](=O)[O-])c4)c(Oc4cnc5[nH]ccc5c4)c3)CC2)=C(c2ccc(Cl)cc2)C1 [Venetoclax] (first compound max 1 µM, 7x7, partner max 1 µM)
A) Not fulfilled

Q) Kindly determine if Bliss excess recorded for CC1(C)CCC(CN2CCN(c3ccc(C(=O)NS(=O)(=O)c4ccc(NCC5CCOCC5)c([N+](=O)[O-])c4)c(Oc4cnc5[nH]ccc5c4)c3)CC2)=C(c2ccc(Cl)cc2)C1 [Venetoclax] + COc1cc(Nc2ncc3c(n2)-c2ccc(Cl)cc2C(c2c(F)cccc2OC)=NC3)ccc1C(=O)O [Alisertib] (first compound max 1 µM, 7x7, partner max 10 µM) is above or exactly 0.02.
A) Fulfilled
